Where do these numbers come from? They come from patent US20260242395A1.

Target: CDK9/CyclinT1 (Homo sapiens, UniProt P50750)
Sequence (P50750 whole entry): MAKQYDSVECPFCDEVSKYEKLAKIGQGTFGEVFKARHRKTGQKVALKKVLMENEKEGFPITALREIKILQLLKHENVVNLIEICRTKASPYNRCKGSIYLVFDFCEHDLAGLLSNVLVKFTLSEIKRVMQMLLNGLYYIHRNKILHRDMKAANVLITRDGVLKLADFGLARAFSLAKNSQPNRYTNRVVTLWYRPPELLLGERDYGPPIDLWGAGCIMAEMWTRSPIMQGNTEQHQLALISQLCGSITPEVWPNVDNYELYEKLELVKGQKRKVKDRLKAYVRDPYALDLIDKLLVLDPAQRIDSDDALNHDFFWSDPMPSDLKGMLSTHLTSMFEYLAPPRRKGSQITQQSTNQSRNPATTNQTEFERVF
Sequence (O60563 whole entry partner): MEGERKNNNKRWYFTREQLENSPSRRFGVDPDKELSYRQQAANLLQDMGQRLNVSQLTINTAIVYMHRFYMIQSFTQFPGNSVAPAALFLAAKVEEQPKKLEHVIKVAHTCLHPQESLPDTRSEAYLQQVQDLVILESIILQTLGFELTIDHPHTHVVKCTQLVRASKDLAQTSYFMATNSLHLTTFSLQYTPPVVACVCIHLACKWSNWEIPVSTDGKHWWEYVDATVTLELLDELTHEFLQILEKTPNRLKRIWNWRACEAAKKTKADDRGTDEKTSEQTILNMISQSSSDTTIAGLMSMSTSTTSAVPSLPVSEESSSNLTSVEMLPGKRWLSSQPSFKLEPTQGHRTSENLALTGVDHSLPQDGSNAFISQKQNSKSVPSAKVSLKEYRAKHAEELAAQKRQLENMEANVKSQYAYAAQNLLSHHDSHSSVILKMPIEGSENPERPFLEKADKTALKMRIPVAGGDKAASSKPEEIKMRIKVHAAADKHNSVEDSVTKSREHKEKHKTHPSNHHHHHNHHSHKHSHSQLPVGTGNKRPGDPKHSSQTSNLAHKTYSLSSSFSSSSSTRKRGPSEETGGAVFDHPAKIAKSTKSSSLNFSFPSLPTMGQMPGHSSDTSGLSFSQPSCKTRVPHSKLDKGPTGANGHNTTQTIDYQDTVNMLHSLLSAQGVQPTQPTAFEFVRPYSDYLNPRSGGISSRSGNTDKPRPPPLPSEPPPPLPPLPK
Experiment: CDK9/CyclinT1 kinase inhibitory activity (Caliper mobility shift)
Details: enzyme 12.5 nM, ATP 10M, 28° C. 30 min; read-out: CDK9/Cyclin T1 IC50
pIC50: −log10 of the molar value.
ASSAY_ENDPOINT: pIC50

# example entries with known answers
                                   compound                         target_under_test  assay_endpoint    meas_value
0  Cc1[nH]cnc1-c1cnc2c(F)cc(-c3nc(N[C@@H]4CCOC[C@H]4O)ncc3Cl)cc2c1  CDK9/CyclinT1 (Homo sapiens, UniProt P50750)           pIC50        ≤ 6.00
1  CC1(C)Cc2cnc3c(F)cc(-c4nc(N[C@@H]5CCOC[C@H]5O)ncc4C#N)cc3c2CN1  CDK9/CyclinT1 (Homo sapiens, UniProt P50750)           pIC50  6.00 to 7.00
2  CC1Cc2cnc3c(F)cc(-c4nc(N[C@@H]5CCOC[C@H]5O)ncc4Cl)cc3c2CN1 (single isomer, unassigned) [Example 34a]  CDK9/CyclinT1 (Homo sapiens, UniProt P50750)           pIC50  7.00 to 8.00

Moving on to another compound below.
Query: # pIC50 lookup, item CC1Cc2cnc3c(F)cc(-c4nc(N[C@@H]5CCOC[C@H]5O)ncc4Cl)cc3c2CN1 (single isomer, unassigned) [Example 34b]
Result: 6.00 to 7.00

* * *

Molecular target: CDK7/CyclinH/MAT1 (Homo sapiens, UniProt P50613)
Sequence (P50613 whole entry): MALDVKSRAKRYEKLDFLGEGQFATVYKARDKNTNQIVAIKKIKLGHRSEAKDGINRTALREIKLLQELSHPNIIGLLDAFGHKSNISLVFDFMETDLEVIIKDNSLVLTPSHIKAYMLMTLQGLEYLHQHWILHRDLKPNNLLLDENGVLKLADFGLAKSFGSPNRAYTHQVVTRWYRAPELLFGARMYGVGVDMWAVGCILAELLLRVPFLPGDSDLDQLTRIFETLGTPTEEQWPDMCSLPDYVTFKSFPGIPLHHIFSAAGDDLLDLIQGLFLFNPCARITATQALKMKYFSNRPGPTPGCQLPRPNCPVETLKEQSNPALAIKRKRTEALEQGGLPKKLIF
Sequence (P51946 whole entry partner): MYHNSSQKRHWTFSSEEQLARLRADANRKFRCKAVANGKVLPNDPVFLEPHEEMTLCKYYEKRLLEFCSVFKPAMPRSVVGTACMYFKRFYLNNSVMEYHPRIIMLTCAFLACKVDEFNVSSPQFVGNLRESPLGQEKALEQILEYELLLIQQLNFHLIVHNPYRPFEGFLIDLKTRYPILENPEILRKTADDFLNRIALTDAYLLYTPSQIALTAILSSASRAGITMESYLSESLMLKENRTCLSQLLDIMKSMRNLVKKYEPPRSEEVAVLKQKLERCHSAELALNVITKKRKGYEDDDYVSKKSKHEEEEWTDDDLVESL
Sequence (P51948 whole entry partner): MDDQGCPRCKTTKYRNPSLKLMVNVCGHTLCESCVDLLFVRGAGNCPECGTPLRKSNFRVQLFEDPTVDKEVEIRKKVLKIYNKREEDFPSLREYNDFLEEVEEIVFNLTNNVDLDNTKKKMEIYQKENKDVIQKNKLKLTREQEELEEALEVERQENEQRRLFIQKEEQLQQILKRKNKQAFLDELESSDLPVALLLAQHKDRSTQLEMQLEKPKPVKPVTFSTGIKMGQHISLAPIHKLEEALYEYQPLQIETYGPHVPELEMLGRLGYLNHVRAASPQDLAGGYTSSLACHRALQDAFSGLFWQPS
Test: CDK7/CyclinH/MAT1 kinase inhibitory activity (Caliper mobility shift)
Conditions: enzyme 12.5 nM, ATP 70 μM, 28° C. 30 min; read-out: CDK7/Cyclin H/MAT1 IC50
ASSAY_ENDPOINT: IC50

>>> df
                                   molecule      meas_value
0  CNC(C)c1cnc2c(F)cc(-c3nc(N[C@@H]4CCOC[C@H]4O)ncc3Cl)cc2c1 (single isomer, unassigned) [Example 32a]       ≥ 1000 nM
1  CC(C)(O)c1cnc2c(F)cc(-c3nc(N[C@@H]4CCOC[C@H]4O)ncc3Cl)cc2c1       ≥ 1000 nM
2  Cc1c(C(C)NC2CC2)cnc2c(F)cc(-c3nc(N[C@@H]4CCOC[C@H]4O)ncc3Cl)cc12 (single isomer, unassigned) [Example 91b]       ≥ 1000 nM
3  Cc1nc2c(F)cc(-c3nc(N[C@@H]4CCOC[C@H]4O)ncc3Cl)cc2c(Cl)c1C(C)O (single isomer, unassigned) [Example 35b]       ≥ 1000 nM
4  [2H]c1nc2c(F)cc(-c3nc(N[C@@H]4CCOC[C@H]4O)ncc3F)cc2c(C)c1C(C)(C)O    10 to 100 nM
5  Cc1nc2c(F)cc(-c3nc(N[C@@H]4CCOC[C@H]4O)ncc3F)cc2c2c1CC1(CC1)NC2  100 to 1000 nM

Moving on to another molecule below.
Query: # IC50 lookup, item "O[C@@H]1COCC[C@H]1Nc1ncc(Cl)c(-c2cc(F)c3ncc(C4(O)CC4)cc3c2)n1"
Result: ≥ 1000 nM

* * *

Biological target: CDK9/CyclinT1 (Homo sapiens)
Assay: CDK9/CyclinT1 kinase inhibitory activity (Caliper mobility shift)
Settings: enzyme 12.5 nM, ATP 10M, 28° C. 30 min; read-out: CDK9/Cyclin T1 IC50
pIC50: −log10 of the molar value.
ASSAY_ENDPOINT: pIC50

# example entries with known answers
>>> df
                                   compound    meas_value
0  Cc1nc2c(F)cc(-c3nc(N[C@@H]4CCOC[C@H]4O)ncc3Cl)cc2c(C)c1[C@H](C)O (single isomer, unassigned) [Example 15b]  6.00 to 7.00
1  CC(C)(N)c1cnc2ccc(-c3nc(N[C@@H]4CCOC[C@H]4O)ncc3Cl)cc2c1  6.00 to 7.00
2  [2H]c1nc2c(F)cc(-c3nc(N[C@@H]4CCOC[C@H]4O)ncc3Cl)cc2c2c1CC(C)(C)NC2  7.00 to 8.00

Query: # pIC50 lookup, item CC1(C)NCc2c(cnc3c(F)cc(-c4nc(N[C@@H]5CCOC[C@H]5O)ncc4F)cc23)C1O (single isomer, unassigned) [Example 106b]
Result: 6.00 to 7.00

Query: What about Cc1nc2c(F)cc(-c3nc(N[C@@H]4CCOC[C@H]4O)ncc3Cl)cc2c(Cl)c1C(C)O (single isomer, unassigned) [Example 35a] ?
Result: 6.00 to 7.00

Query: What about "O[C@@H]1COCC[C@H]1Nc1cc(-c2cc(F)c3ncc4c(c3c2)CNCC4)c(Cl)cn1" ?
Result: 7.00 to 8.00

Query: What about "CC1(C)Cc2cnc3c(F)cc(-c4ccnc(N[C@@H]5CCOC[C@H]5O)n4)cc3c2CN1" ?
Result: 6.00 to 7.00

Query: What about "Cc1c(C(C)(C)O)cnc2c(F)cc(-c3nc(N[C@@H]4CCOC[C@H]4O)ncc3F)cc12" ?
Result: 6.00 to 7.00

Query: What about "[2H]c1nc2c(F)cc(-c3nc(N[C@@H]4CCOC[C@H]4O)ncc3C)cc2c2c1CC1(CC1)NC2" ?
Result: 6.00 to 7.00

Query: What about O[C@@H]1COCC[C@H]1Nc1ncc(Cl)c(-c2cc(F)c3ncc4c(c3c2)C2CCC(C4)N2)n1 (single isomer, unassigned) [Example 20b] ?
Result: 6.00 to 7.00

Query: What about Cc1c(C(C)O)cnc2c(F)cc(-c3nc(N[C@@H]4CCOC[C@H]4O)ncc3Cl)cc12 (single isomer, unassigned) [Example 88a] ?
Result: 6.00 to 7.00

Query: What about "CC1(C)Cc2cnc3c(F)cc(-c4nc(N[C@@H]5CCOC[C@H]5O)ncc4F)cc3c2CN1" ?
Result: 7.00 to 8.00

Query: What about CNC(C)c1cc2cc(-c3nc(N[C@@H]4CCOC[C@H]4O)ncc3Cl)cc(F)c2nc1C (single isomer, unassigned) [Example 45b] ?
Result: ≤ 6.00
